// provenance: ChEMBL document CHEMBL3407471

Test system: Escherichia coli
protocol details: Agonist activity at LasR in Escherichia coli at 100 uM
Calls of active or inactive are those of the source. The calls are words filed in the database; no cut-off is given here.
property: Activity

What measured Activity goes with O=C(CCCCCOc1cccc(Br)c1)Nc1ccnc(C(F)(F)F)c1 ? inactive

Which Activity is listed for CCCCCCCCCCCC(=O)Nc1ccnc(F)c1 ? inactive

Which Activity value is on record for CCCCCCCCCC(=O)CC(=O)Nc1ccncc1 ? inactive

Reported Activity for O=C(CCCCCOc1cccc(F)c1)Nc1ccnc(C(F)(F)F)c1 : what is it? inactive

----------
Catalogue of IC50 readings, one per entry.
Test system: Pseudomonas aeruginosa
protocol details: Inhibition of quorum sensing activity in wild-type Pseudomonas aeruginosa PA14 assessed as inhibition of pyocyanin production by spectrophotometry relative to control
Assay type: functional
Remember to quote the unit after the number.

Completed entries (count: 3):
Recorded IC50 for O=C(CCCCCOc1cccc(Br)c1)Nc1ccnc(C(F)(F)F)c1 , please? 2.7 µM

Which IC50 value belongs to O=C(CCCCCOc1cccc(F)c1)Nc1ccnc(C(F)(F)F)c1 ? 6.3 µM

So what's the measured IC50 for this one? CCCCCCCCCCCC(=O)Nc1ccnc(F)c1 4.4 µM

Please find the next compound below.
# query: IC50 of entry CCCCCCCCCC(=O)CC(=O)Nc1ccncc1 0.16 µM
